Provenance of the data: ChEMBL document CHEMBL4431304

# System: SMMC-7721
# assay procedure: Cytotoxicity against human SMMC7721 cells assessed as reduction in cell viability after 48 hrs by MTT assay
# Assay type: functional, cell-based
# experimental parameters: SMMC-7721, 48 h
pIC50: −log10 of the molar value.

{"smi": "O=C1[C@H]2CCC[C@H]3CC[C@H]4N5CCCC[C@H]5[C@@H]5CCCN1[C@H]5N4[C@@H]32", "pIC50": "< 5.00"}
{"smi": "C1C[C@H]2CC[C@H]3N4CCCC[C@H]4[C@@H]4CCCN5C[C@@H](C1)[C@H]2N3[C@@H]45", "pIC50": "< 5.00"}
{"smi": "N#C[C@@H]1N2CCC[C@H]3[C@@H]4CCCCN4[C@@H]4CC[C@H]5CCC[C@]1(O)[C@@H]5N4[C@@H]32", "pIC50": "< 5.00"}
